The origin of these recorded values is PubChem BioAssay.

Recorded growth inhibition values for a group of compounds are listed next.
assayComment: S. cerevisiae growth inhibition in restrictive medium, OD615, pilot screen, restrictive growth control, yeast lifespan reduction project (AID 706);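 also: modified DeaD lifespan yeast strain shifted to restrictive glucose medium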
conditionInfo: OD615, 48 h, at 10 µM, stronger effect = higher value
Give just the number in %; leave the unit off.

Sample answers from the record:
Qu. Query: growth inhibition; subject: N#CCCN1CCN(C(=S)c2ccc(-c3cccc(Cl)c3)o2)CC1
Ans. 22.7

Qu. For the compound COc1ccc(C)cc1NC(=O)CSc1nnc(-c2ccccn2)n1Cc1ccco1 , what growth inhibition is on record?
Ans. 7.74

Qu. Find the recorded growth inhibition belonging to CCC(C)(C(=O)NC1CCCC1)N(C(=O)CNC(C)=O)c1ccc(C)cc1 (stereo not given) and report it.
Ans. -5.89

More entries:
Qu. Which growth inhibition value is on record for CC1CCN(c2nc(-c3ccccc3)cc(C(F)(F)F)n2)CC1 ?
Ans. -11

Qu. // lookup growth inhibition for COc1ccc(-c2n[nH]c(C)c2-c2cnn(-c3ccccc3)c2)c(O)c1
Ans. 0.745

---

Listing of entries alongside the reported growth inhibition.
assayComment: S. cerevisiae growth inhibition in permissive medium (OD615), pilot counter-assay for S. cerevisiae lifespan shortening project, permissive growth control (AID 705)
conditionInfo: OD615, 24 h, at 10 µM, stronger effect = higher value
Number in %, nothing else.

Qu. Given CCOC(=O)C1CCCN(C(=O)CCCn2nc(C)n3c(cc4sccc43)c2=O)C1 (stereo unspecified) , state its recorded growth inhibition.
Ans. -4.78

Qu. Look up growth inhibition for this molecule: CCN1CCN(CC(=O)Nc2cccc(C)c2)C(=O)C1=O
Ans. -9.91

Qu. growth inhibition lookup needed for COc1ccc(-c2n[nH]c(C)c2-c2cnn(-c3ccccc3)c2)c(O)c1 , thanks.
Ans. 5.3

Qu. Requested read-out: growth inhibition. Entry: O=C(c1cnn2ccccc12)N1CCCc2ccccc21
Ans. -3.54

Further cases:
Qu. Using the record for COc1cc2c(cc1OC)C(c1ccccc1)N(C(=O)c1ccco1)CC2 (stereo unspecified) , report its growth inhibition.
Ans. -21.2

Qu. Can you share its growth inhibition? I mean this molecule: CCOC(=O)c1[nH]c(C)c(C(=O)N2CCOCC2)c1C
Ans. -6.62

---

assayComment: growth suppression of yeast trafficking mutant, preliminary HTS, modulators of trafficking downstream of Golgi apparatus project, 1536-format plate, OD 615 nm (AID 637)
conditionInfo: yeast transport mutant growth, absorbance 615 nm, 18 h; stronger effect = higher value
Measured inhibition, listed per entry for reference.
Field: numeric (%). Do not append units.

Qu. # input compound: COc1ccc(S(=O)(=O)NCc2ccco2)cc1-c1nnc2c3ccccc3c(C)nn12 ; wanted: its inhibition
Ans. 7.14

Qu. Any idea what inhibition was measured for CCCN(CCC)CCCNS(=O)(=O)c1ccc2c(c1)oc(=O)n2C ?
Ans. -4.44

Qu. Given the compound COC(=O)C1(C(=O)OC)Sc2ccccc2C1=O , what is its reported inhibition?
Ans. 3.33

Qu. What value of inhibition has been recorded for this entry: Cc1cc(C)cc(Nc2ncc3c(n2)CC(c2ccco2)CC3=O)c1 (configuration not stated)
Ans. 3.17

Qu. Query: inhibition; subject: CS(=O)(=O)N(CC(=O)N1CCCCCC1)c1ccccc1
Ans. 1.9

Qu. Quick one: inhibition for Cc1ccc(NC(=O)C2CCCNC2=O)nc1 (configuration not stated) ?
Ans. -2.7

Qu. If you can, please state the reported inhibition value of CN(C)S(=O)(=O)Nc1ccccc1C(N)=O .
Ans. 0.63

Qu. Record request: inhibition value, item CC1(c2ccc(OC(F)F)cc2)NC(=O)N(CC(=O)Nc2ccc3c(c2)OCO3)C1=O (configuration not stated)
Ans. -3.65

---

assayComment: growth suppression of yeast trafficking mutant, preliminary HTS, modulators of trafficking downstream of Golgi apparatus project, 1536-format plate, OD 615 nm (AID 637)
conditionInfo: yeast transport mutant growth, absorbance 615 nm, 18 h; stronger effect = higher value
measuredEndpoint: inhibition (%)
// units = %; emit number, no label

Qu. For the molecule O=c1c2ccccc2nc(-c2cccc(Cl)c2)n1O , what inhibition is on record?
Ans. 0.32

***
Qu. Recorded inhibition for CCOc1ccc(OCC)c(NS(=O)(=O)c2ccc3c(c2)n(C)c(=O)c(=O)n3C)c1 , please?
Ans. 1.27

Qu. Record request: inhibition value, item Cc1ccc2nc(CSc3nnc(-c4ccco4)n3-c3ccccc3)cc(=O)n2c1
Ans. 16.4

Qu. Look up inhibition: CC(C)NC(=O)NC(=O)COc1cccc2c1OC(C)(C)C2
Ans. 0.79

---

assayComment: doxorubicin toxicity protection in MRP-1 cells – H69AR cells, CellTiter-Glo, duplicate, MRP-1 activator project, pilot screen (AID 807);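 also: compound pretreatment 18-22 h then 72 h combined with doxorubicin; 0% = doxorubicin alone and 100% = vehicle without doxorubicin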
conditionInfo: H69AR viability with doxorubicin, CellTiter-Glo luminescence; at 10 µM; stronger effect = higher value
measuredEndpoint: viability increase (%)
Give just the number in %; leave the unit off.

Below, each entry is followed by its recorded viability increase result.
Qu. Tell me the measured viability increase of COc1ccc(-c2nc(CS(=O)CC(=O)NCc3ccc4c(c3)OCO4)c(C)o2)cc1 (stereo not given) , please.
Ans. -1.69

Qu. Sample Cc1ccc(Cl)cc1N1CCN(C(=O)CCS(=O)(=O)c2cccc3nonc23)CC1 — what was its viability increase?
Ans. -3.47

Qu. Entry CN(Cc1ccccc1)c1oc(COc2ccccc2F)nc1C#N : reported viability increase = ?
Ans. 2.94

Continuing:
Qu. Which value of viability increase has been reported for CN(C)c1ccc(-c2noc(C3CCN(S(=O)(=O)c4cccc(Cl)c4)CC3)n2)cc1 in the records?
Ans. 3.01

Qu. Look at this compound and give its reported viability increase. CCOC(=O)C1=C(N)OC2=C(C(=O)CC(C)(C)C2)C1C1CCCCC1 (stereo not given)
Ans. -1.22

---

assayComment: H69AR cell proliferation blockers – human, duplicate replicates, primary screen (AID 580);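 also: 100% = mean luminescence of untreated wells and 0% = no signal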
conditionInfo: H69AR lung tumor cells viability, ATP luminescence, 72 h; at 10 µM; stronger effect = lower value
# reported viability; entries follow
Note: unit % is implicit; provide only the numeric part.

Qu. Fill in the blank: the reported viability of COc1cccc(-n2c(SCC(=O)OC(C)C)nnc2-c2cccnc2)c1 is ____.
Ans. 97.4

Qu. Which viability is listed for Cc1cc(N2C(=O)C(O)=C(C(=O)c3ccc(C)o3)C2c2cccs2)no1 (configuration not stated) ?
Ans. 79.9

Qu. Look up viability: C=CCNc1oc(-c2cccc3ccccc23)nc1C#N
Ans. 84.8

Qu. Look up viability for this molecule: CC(=O)N1CCN(S(=O)(=O)c2ccc(S(=O)(=O)NC3CC3)cc2)CC1
Ans. 92.3

Qu. // returns reported viability for input COc1ccccc1CNC(=O)C1CCN(S(=O)(=O)N2CCCCC2)CC1
Ans. 81.7

Qu. Return reported viability; argument: c1ccc(-c2nc3nonc3c3nc4ccccc4n23)cc1
Ans. 88.8

Qu. What measured viability goes with Cc1ccc(NC(=O)c2ccco2)cc1NC(=O)CSc1nnc(-c2cccs2)n1C ?
Ans. 99.8

Qu. Query (molecule): Cc1cc2c(c(=O)n1CCN(C)C)C(c1ccncc1)C(C#N)=C(N)O2 (configuration not stated) ; field requested: viability
Ans. 103

Qu. What viability value was documented for this molecule, COc1ccc(C2C(C(C)=O)=C(C)N=c3s/c(=C\c4ccc5c(c4)OCO5)c(=O)n32)c(OC)c1 (configuration not stated) ?
Ans. 99.7

Qu. Need viability of COc1ccc(C)cc1-n1nnnc1SCC(=O)NC(=O)NCc1ccco1 , thanks.
Ans. 87.3

Qu. Query: viability; subject: O=c1c2ccc(-c3nnc4n3-c3ccccc3SC4)cc2nc2n1CCCCC2
Ans. 94.4

Qu. Need viability, item CCc1nnc(NC(=O)CCC(=O)Nc2ccccc2)s1
Ans. 90

Qu. Which viability is reported for this molecule? COCCN(CC(=O)Nc1ccccc1C)S(=O)(=O)c1ccc(S(=O)(=O)N2CCCC2)cc1
Ans. 95.7

Qu. # lookup: viability of O=c1oc2ccccc2c(O)c1CN1CCCCC1
Ans. 99.9

Qu. Can you share its viability? I mean this molecule: Cc1cc(C)n(-c2nc(C)nc3c2cnn3-c2ccccc2)n1
Ans. 87.3

Qu. Name the reported viability value associated with the molecule CCC1(CC)C(=O)C(C)(C)C(=O)OC1c1cccs1 (configuration not stated)
Ans. 90.7

Qu. Bench note: what viability did Cc1onc(-c2c(Cl)cccc2Cl)c1C(=O)NCCCN1CCOCC1 show?
Ans. 100

Qu. # lookup: viability of Cc1ccc(OCc2nnc(SCC(=O)Nc3ccc4c(c3)OCO4)n2C)cc1
Ans. 76.9

Qu. Recorded viability of C=C(C)CSc1nnc2[nH]c(=O)cc(N)n12 , please.
Ans. 87.9

---

viability by entry:
assayComment: MRP1 drug-resistance reversers in H69AR cells – cell-based, doxorubicin co-treatment, pilot screen (AID 601)
conditionInfo: H69AR cells + 2 uM doxorubicin, CellTiter-Glo, 72 h; measured here: viability with 2 uM doxorubicin; at 10 µM; stronger effect = lower value
Report only the number, with the unit % understood.

Some compounds with known viability results, for comparison:
Qu. // returns reported viability for input COc1ccc(NC(=O)c2ccco2)cc1NC(=O)c1cccs1
Ans. 92

Qu. Given the compound COc1ccccc1CNC(=O)C1CCN(S(=O)(=O)N2CCCCC2)CC1 , what is its reported viability?
Ans. 80.2

Qu. Return reported viability; argument: CCOC(=O)C1=C(Cn2cnc3ccccc32)NC(=O)NC1c1cc(C)ccc1C (stereo unspecified)
Ans. 60.1

---
Qu. Any idea what viability was measured for Cc1ccc(S(=O)(=O)N(C)CC(=O)NC2CCCC2)cc1 ?
Ans. 84.9

Qu. Give its viability value. Item: CC(=O)c1ccc(NC(=O)CSc2nnc(-c3ccoc3C)n2Cc2ccccc2)cc1
Ans. 89.6

Qu. I would be grateful if you could share the reported viability for CCCCCCNC(=O)c1c(N)n(/N=C/c2ccco2)c2nc3ccccc3nc12 .
Ans. 79.4

Qu. // viability lookup, key: CC(C)(C)n1nnnc1CN(Cc1ccco1)Cc1cc2cc3c(cc2[nH]c1=O)OCO3
Ans. 68

Qu. Form field: reported viability of COC(=O)Cn1c2ccccc2c2nc(C)sc21
Ans. 91.5
